Ref: the supplement of paper PMC7023306

- run description: TIMS collision cross section in N2 (TIMS CCS N2); higher = larger gas-phase ion size
- experimental setup: ion species: [M-H]-; drift gas: N2 (99.4% N2, 0.6% O2); calibration: Stow et al. 2017 values for Agilent ESI-L Low Concentration Tune Mix; ionization: negative ESI
assay metric: TIMS collision cross section in N2 (Å²)

| molecule | recorded number |
| --- | --- |
| CCCCCCCCCCCCCCC(=O)O | 166.43 |
| O=c1c(O)c(-c2ccccc2)oc2cc(O)cc(O)c12 | 156.93 |
| O=c1cc(-c2ccc(O)cc2)oc2cc(O)cc(O)c12 | 157.47 |
| COc1ccc(-c2cc(=O)c3ccc(O)cc3o2)cc1 [7-Hydroxy-4'-methoxyflavone] | 165.03 |
| COc1ccc(-c2cc(=O)c3c(O)cc(O)cc3o2)cc1O | 171.28 |
| O=C1CC(c2ccccc2)Oc2c(O)ccc(O)c21 (stereo not drawn) [5,8-Dihydroxyflavanone] | 158.38 |
| COc1ccc(C(=O)/C=C/c2ccccc2)c(O)c1 [2'-Hydroxy-4'-methoxychalcone] | 163.91 |
| COc1ccc(-c2cc(=O)c3c(O)cc(O[C@@H]4O[C@H](CO[C@@H]5O[C@@H](C)[C@H](O)[C@@H](O)[C@H]5O)[C@@H](O)[C@H](O)[C@H]4O)cc3o2)cc1O | 233.82 |
